test system: MDA-MB-231; experiment: Antiproliferative activity against human MDA-MB-231 cells after 48 hrs by MTT assay; assay type: functional, cell-based; conditions: MDA-MB-231, 48 h
Assay readout: IC50 (µM)
Give just the numeric value; µM need not be written.

The recorded IC50 for entry `O=C(CCCCCC(=O)Nc1nnc(-c2cccnc2)s1)NO` equals 11.7

The recorded IC50 for entry `O=C(CCCCCCC(=O)Nc1nnc(-c2ccncc2)s1)NO` equals 4.69

The recorded IC50 for entry `O=C(CCCCCC(=O)Nc1nnc(-c2cccs2)s1)NO` equals 15.2

The recorded IC50 for entry `O=C(CCCCCCC(=O)Nc1nnc(-c2cccs2)s1)NO` equals 1.21

The recorded IC50 for entry `O=C(CCCCCCC(=O)Nc1nnc(-c2cccnc2)s1)NO` equals 1.87

The recorded IC50 for entry `O=C(CCCCCCC(=O)Nc1ccccc1)NO` equals 2.29

The recorded IC50 for entry `O=C(CCCCCC(=O)Nc1nnc(-c2ccncc2)s1)NO` equals 40.1
